melting point: recorded values

Consider the worked cases shown below.
Inquiry: Supply measured melting point of O=C(CN1CCC(Cc2ccc(F)cc2)CC1)Nc1ccc2[nH]cnc2c1 in your reply.
Reply text: 204 °C

Inquiry: Supply measured melting point of NC(=O)C(O)c1ccsc1 (stereo unspecified) in your reply.
Reply text: 114 to 120 °C

Inquiry: Supply measured melting point of CCn1cc(O)c(=O)cc1CO in your reply.
Reply text: 143 to 145 °C

Inquiry: Supply measured melting point of CCOC1=NC(N)=C(C(=O)OC)C(c2ccccc2F)C1C(=O)OC (stereo unspecified) in your reply.
Reply text: 180 °C

New cases:
Inquiry: Supply measured melting point of CON=C1SC(C)(c2ccccc2)C(=O)N1Nc1ccccc1 (stereo unspecified) in your reply.
Reply text: 133 to 134 °C

Inquiry: Supply measured melting point of CC(=O)c1c(C)nc2ccccc2c1NCc1cccc(Br)c1 in your reply.
Reply text: 109 °C

Inquiry: Supply measured melting point of FC(F)(F)c1nnc(Cl)c2cc3ccccn3c12 in your reply.
Reply text: 245 to 246 °C

* * *

melting point: recorded values

Consider the worked cases shown below.
Inquiry: Supply measured melting point of CCCc1ccc(-c2ccc(-c3ccc(O)cc3)nn2)cc1 in your reply.
Reply text: 220 to 223 °C

Inquiry: Supply measured melting point of C/C(NCC(C)(C)C)=C(\C#N)C(N)=S in your reply.
Reply text: 143 to 144 °C

Inquiry: Supply measured melting point of O=S(=O)(F)CCCCCCCc1ccc(OCc2ccccc2)cc1 in your reply.
Reply text: 35 to 38 °C

Inquiry: Supply measured melting point of BrCCCCCCCCCCCCN1CCN(c2ccccc2)CC1 in your reply.
Reply text: 26 to 28 °C

Inquiry: Supply measured melting point of CCc1[nH]c2ccc(OC)cc2c1C=O in your reply.
Reply text: 211 to 212 °C

Inquiry: Supply measured melting point of Cc1c(NC(=O)c2ccc(OC[C@@H]3CCCO3)cc2)ccc2cc(CNC3CCOCC3)cnc12 in your reply.
Reply text: 158 to 159 °C

Inquiry: Supply measured melting point of CNc1ccc([N+](=O)[O-])cc1N in your reply.
Reply text: 171 to 173 °C

Inquiry: Supply measured melting point of O=[N+]([O-])c1cnccc1-c1ccc(Cl)cc1 in your reply.
Reply text: 74 to 76 °C

Inquiry: Supply measured melting point of C#CCN(C)c1c(-c2c(F)cc(F)cc2F)c(C#N)nc2ncnn12 in your reply.
Reply text: 147 °C

Inquiry: Supply measured melting point of CCOC(=O)C1=CC2(CCC1S(=O)(=O)Nc1ccc(F)cc1Cl)OC(CC)C(CC)(CC)O2 (stereo unspecified) in your reply.
Reply text: 124 to 126 °C

New cases:
Inquiry: Supply measured melting point of COc1ccccc1-c1nc(N)ncc1-c1ccc(=O)[nH]n1 in your reply.
Reply text: 273 °C

* * *

outcomeMeasure: melting point

Consider the worked cases shown below.
Inquiry: Supply measured melting point of CCOC(=O)/C(=C\Nc1ccccc1OC)c1ccc(OC)cc1 in your reply.
Reply text: 58 to 59 °C

Inquiry: Supply measured melting point of COc1ccc(C(C#N)N(C)C(=O)C(Cl)Cl)cc1OC (stereo not given) in your reply.
Reply text: 102 °C

Inquiry: Supply measured melting point of CCCCCCCC(=O)NCCCCO in your reply.
Reply text: 76 to 77 °C

Inquiry: Supply measured melting point of CCCc1c(OCCCOc2ccc(C(=O)CCC(=O)O)c(Cl)c2Cl)ccc(C(C)=O)c1O in your reply.
Reply text: 119 to 123 °C

New cases:
Inquiry: Supply measured melting point of CN(c1cccc(-c2ccnc3c(C(=O)c4cccs4)cnn23)c1)S(C)(=O)=O in your reply.
Reply text: 169 to 170 °C

Inquiry: Supply measured melting point of COCCc1nc2c(N)nc3c(c2n1CCCCNS(=O)(=O)c1ccc(F)cc1)CCCC3 in your reply.
Reply text: 191 to 193 °C

* * *

melting point: recorded values

Consider the worked cases shown below.
Inquiry: Supply measured melting point of CCOC(=O)/C=C(C)/C=C/C=C(C)/C=C(/F)c1c(C)cc(OC)c(C)c1C in your reply.
Reply text: 74 to 87 °C

Inquiry: Supply measured melting point of Cn1ccc(-c2ccc(C(=O)N3Cc4cccn4Cc4ccccc43)c(Cl)c2)n1 in your reply.
Reply text: 148 to 150 °C

New cases:
Inquiry: Supply measured melting point of COc1ccc(ONc2ccccc2)cc1 in your reply.
Reply text: 70 to 73 °C

Inquiry: Supply measured melting point of Cc1cn(Nc2ccncn2)c2ccccc12 in your reply.
Reply text: 121 to 123 °C

Inquiry: Supply measured melting point of O=C(O)c1c(Cl)nc(Cl)nc1Cl in your reply.
Reply text: 150 °C

Inquiry: Supply measured melting point of CNC1C(O)C(OC2C(N)CC(N)C(OC3OC(C(C)O)C(O)C(O)C3N)C2O)OCC1(C)O (stereo unspecified) in your reply.
Reply text: 65 °C

Inquiry: Supply measured melting point of CC[C@H](Nn1c([C@H](C)OC)nnc1[C@H](C)OC)C(OC)OC in your reply.
Reply text: 67 to 68 °C

Inquiry: Supply measured melting point of COC(=O)C1=C(C)NC(C)=C(c2nc(C)no2)C1c1cccc([N+](=O)[O-])c1 (stereo unspecified) in your reply.
Reply text: 221 to 222 °C

Inquiry: Supply measured melting point of CCCCNCP(=O)(O)O in your reply.
Reply text: 236 to 240 °C

Inquiry: Supply measured melting point of C=CCNC(=O)C=c1sc2n(c1=O)Cc1ccccc1N=2 in your reply.
Reply text: 275 to 276 °C

Inquiry: Supply measured melting point of Cc1cc(NCC(=O)N(C)c2ccccc2)nc(-c2ccccc2)n1 in your reply.
Reply text: 134 to 136 °C

Inquiry: Supply measured melting point of CCCCc1nc2ccc(C(=O)O)cc2n1Cc1ccc(C(=O)O)cc1 in your reply.
Reply text: 290 °C

* * *

melting point: recorded values

Inquiry: Supply measured melting point of COc1cc(Nc2c(C#N)cnc3cc(-c4ccc(CN5CCOCC5)o4)ccc23)c(Cl)cc1Cl in your reply.
Reply text: 182 to 183 °C

New cases:
Inquiry: Supply measured melting point of O=C(NO)c1cc(Oc2ccc(C(F)(F)F)cc2Cl)ccc1O in your reply.
Reply text: 188 to 191 °C

Inquiry: Supply measured melting point of O=C(c1ccc([N+](=O)[O-])cc1)N1Cc2ccccc2Sc2ccccc21 in your reply.
Reply text: 147 to 149 °C

Inquiry: Supply measured melting point of O=Cc1ccnc2ccc(Cl)cc12 in your reply.
Reply text: 152 to 153 °C

Inquiry: Supply measured melting point of CCCc1nn(C)c2c(OCCOc3ccc(CC(OCC)C(=O)OCC)cc3)nc(-c3ccccc3)nc12 (stereo not given) in your reply.
Reply text: 80 to 82 °C

Inquiry: Supply measured melting point of O=C(C1CCN(c2c(Cl)cncc2Cl)CC1)N1CCOCC1 in your reply.
Reply text: 172 to 174 °C

Inquiry: Supply measured melting point of CCOC(=O)C(=O)CC(=O)c1cn(Cc2cccc(F)c2)c2ccccc2c1=O in your reply.
Reply text: 174 to 175 °C

Inquiry: Supply measured melting point of CC(=O)N1CCC(CCCC(=O)c2ccc3c(c2)CCNCC3)CC1 in your reply.
Reply text: 90 to 91 °C

Inquiry: Supply measured melting point of COc1cccc(OC)c1C(=O)NCCSCc1cccc(Cl)c1 in your reply.
Reply text: 90 to 91 °C

Inquiry: Supply measured melting point of N#CCCOc1ccccc1OCCC#N in your reply.
Reply text: 124 to 125 °C

* * *

outcomeMeasure: melting point

Consider the worked cases shown below.
Inquiry: Supply measured melting point of O=C(Nc1ccc(-c2ncc(-c3ccc(NC(=O)C4CCCCCC4)cc3)[nH]2)cc1)c1ccc(F)cc1 in your reply.
Reply text: 314 to 316 °C

Inquiry: Supply measured melting point of COC(=O)c1ccc(Cn2ncc3ccc([N+](=O)[O-])cc32)cc1 in your reply.
Reply text: 171 to 172 °C

Inquiry: Supply measured melting point of CCCCN(CCCC)c1ccc(C=CC=CC2=C(C#N)C(=C(C#N)C#N)OC2(c2ccccc2)C(F)(F)F)c(OC)c1 (stereo not given) in your reply.
Reply text: 190 to 192 °C

Inquiry: Supply measured melting point of Cc1cc(C(=O)O)cc(Cl)c1C1=NC(C)(C(C)C)C(=O)N1 (stereo not given) in your reply.
Reply text: 245 to 248 °C

New cases:
Inquiry: Supply measured melting point of CCN(CC)CCOc1ccn2nc(-c3ccccc3)c(-c3ccc(=O)n(C(C)C)n3)c2c1 in your reply.
Reply text: 92.5 to 94.5 °C

Inquiry: Supply measured melting point of COc1ccc(NC(=O)CN2CC(C)N(C(c3ccc(F)cc3)c3ccc(F)cc3)CC2C)cc1 (stereo not given) in your reply.
Reply text: 131 °C

Inquiry: Supply measured melting point of C[C@H](NC(=O)OC(C)(C)C)C(=O)N1CCC[C@H]1C(=O)O in your reply.
Reply text: 155 to 157 °C

Inquiry: Supply measured melting point of OCc1nc(-c2cccs2)cs1 in your reply.
Reply text: 113 to 114 °C

Inquiry: Supply measured melting point of O=C(O)Cc1cc(C(=O)c2cc(Cl)ccc2Cl)ccc1O in your reply.
Reply text: 149 °C

Inquiry: Supply measured melting point of NC(=O)NC(=O)c1ccncc1 in your reply.
Reply text: 245 to 247 °C

Where these numbers come from: a melting point compilation (Tetko et al.; mined from patent text by program, amines drawn as free bases though some values may be those of a salt)
